Test system: NCI/ADR-RES
Measurement description: Reversal fold, ratio of doxorubicin IC50 to doxorubicin IC50 in presence of test compound for reversal of P-gp mediated multidrug resistance in doxorubicin resistant human MCF-7/ADR cells incubated for 48 hrs by CCK-8 assay; note: test concentration or dose not given here
Assay type: functional
Parameter: Ratio IC50
A bare number is all that is needed in reply.

CN(C)CCNC(=O)c1ccc2[nH]cc([Se]c3cccc(C(=O)NCc4ccccn4)c3)c2c1    3.6
COc1cc2c(cc1OC)CN(C(=O)c1cccc([Se]c3c[nH]c4ncccc34)c1)CC2    2.8
COc1ccc(NC(=O)c2ccc3[nH]cc([Se]c4cccc(C(=O)Nc5ccc(OC)c(OC)c5)c4)c3c2)cc1    5.2
COc1ccc(Cn2cc([Se]c3cccc(C(=O)Nc4ccc(OC)c(OC)c4)c3)c3ccccc32)cc1    16.4

Entry `CNC(=O)c1ccc2c([Se]c3cccc(C(=O)NCc4ccccn4)c3)c[nH]c2c1` has what Ratio IC50?
1.2

Then `COc1cc2c(cc1OC)CN(CCc1ccc(NC(=O)c3cc(OC)c(OC)cc3NC(=O)c3cnc4ccccc4c3)cc1)CC2` ?
261.6

Then `COc1ccc(NC(=O)c2cccc([Se]c3c[nH]c4ccccc34)c2)cc1OC` ?
5.67

Then `COc1ccc(NC(=O)c2cccc([Se]c3c[nH]c4ccc(-c5cnn(C)c5)cc34)c2)cc1OC` ?
98.4

Then `COc1ccc(CNC(=O)c2ccc([Se]c3c[nH]c4ccccc34)cc2)cc1OC` ?
3.61

Then `COc1ccc(CNC(=O)c2cccc([Se]c3c[nH]c4ccccc34)c2)cc1OC` ?
2.4

Then `CNC(=O)c1cccc2c([Se]c3cccc(C(=O)NCc4ccccn4)c3)c[nH]c12` ?
2

Then `O=C(NCc1ccccn1)c1cccc([Se]c2c[nH]c3ccccc23)c1` ?
8.49
